- study target: THRβ (Homo sapiens)
- Construct: GST
- Sequence (P10828 whole entry): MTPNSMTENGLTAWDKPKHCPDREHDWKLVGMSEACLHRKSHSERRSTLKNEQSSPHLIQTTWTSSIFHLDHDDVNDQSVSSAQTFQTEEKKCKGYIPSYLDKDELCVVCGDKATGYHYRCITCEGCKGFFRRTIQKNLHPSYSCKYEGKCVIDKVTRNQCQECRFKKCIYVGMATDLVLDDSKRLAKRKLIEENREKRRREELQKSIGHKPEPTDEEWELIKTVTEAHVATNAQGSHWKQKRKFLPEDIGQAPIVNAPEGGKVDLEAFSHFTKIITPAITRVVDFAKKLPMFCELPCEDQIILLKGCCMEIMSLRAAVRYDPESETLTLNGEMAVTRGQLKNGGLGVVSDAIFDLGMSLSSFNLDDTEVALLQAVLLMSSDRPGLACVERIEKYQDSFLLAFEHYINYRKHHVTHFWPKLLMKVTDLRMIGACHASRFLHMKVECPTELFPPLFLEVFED
- Sequence (P19793 225-462 partner limits assumed): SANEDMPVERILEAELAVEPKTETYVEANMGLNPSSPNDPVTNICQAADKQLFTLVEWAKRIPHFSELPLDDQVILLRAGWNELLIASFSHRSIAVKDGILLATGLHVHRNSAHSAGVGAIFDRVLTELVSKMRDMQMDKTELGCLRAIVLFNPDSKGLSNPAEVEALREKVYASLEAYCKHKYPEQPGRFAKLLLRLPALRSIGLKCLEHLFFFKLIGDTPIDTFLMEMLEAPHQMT
- Sequence (Q15596 679-703 partner limits assumed): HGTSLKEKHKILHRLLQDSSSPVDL
- run description: THRβ agonist activity, fluorescence ratio 665 nm/615 nm with EE-RxRα and biotin-GRIP
- test settings: incubated overnight at 4° C.
reported endpoint: log10 of EC50 (log10 of the value in nM)
Base-10 log of EC50, unit nM.

Worked cases, answers included:
{"smiles structure": "N#Cc1nn(-c2ccc(Oc3cc(CC4CCCC4)c(=O)[nH]n3)cc2Cl)c(=O)[nH]c1=O", "data value": 3.18}
{"smiles structure": "CC(C)c1cc(Oc2ccc(-n3nc(C#N)c(=O)[nH]c3=O)cc2Cl)n[nH]c1=O", "data value": 1.74}
{"smiles structure": "CC(C)c1cc(Oc2cc(Cl)c(-n3nc(C#N)c(=O)[nH]c3=O)cc2Cl)n[nH]c1=O", "data value": 2.07}
{"smiles structure": "Cc1c(Oc2c(Cl)cc(-n3nc(C#N)c(=O)[nH]c3=O)cc2Cl)n[nH]c(=O)c1C", "data value": 2.26}
{"smiles structure": "CC(C)c1cc(Oc2ccc(-n3nc(C#N)c(=O)[nH]c3=O)cc2Br)n[nH]c1=O", "data value": 1.49}
{"smiles structure": "N#Cc1cn(-c2cc(Cl)c(Oc3cc(C4CCC4)c(=O)[nH]n3)c(Cl)c2)c(=O)[nH]c1=O", "data value": 1.41}
{"smiles structure": "COc1cc(-n2nc(C#N)c(=O)[nH]c2=O)ccc1Oc1cc(CC2CCCC2)c(=O)[nH]n1", "data value": 2.86}
{"smiles structure": "COc1cc(-n2nc(C#N)c(=O)[nH]c2=O)ccc1Oc1cc(C(C)(C)C)c(=O)[nH]n1", "data value": 3.69}
{"smiles structure": "CC(C)(C)c1cc(Oc2c(Cl)cc(-c3c[nH]c(=O)c(O)c3)cc2Cl)n[nH]c1=O", "data value": 2.87}
{"smiles structure": "CC(C)(C)Cc1cc(Oc2cc(Cl)c(-n3cc(C#N)c(=O)[nH]c3=O)cc2Cl)n[nH]c1=O", "data value": 1.62}

Hi there! I need log10 of EC50 for each item below, if you can.
1. N#Cc1nn(-c2cc(Cl)c(Oc3cc(CC4CCCC4)c(=O)[nH]n3)c(Cl)c2)c(=O)[nH]c1=O
2. COc1cc(-n2nc(C#N)c(=O)[nH]c2=O)ccc1Oc1n[nH]c(=O)c(C)c1C
3. CC(C)(C)c1cc(Oc2ccc(-n3nc(C#N)c(=O)[nH]c3=O)c(Cl)c2)n[nH]c1=O
4. Cc1c(Oc2ccc(-n3nc(C#N)c(=O)[nH]c3=O)cc2F)n[nH]c(=O)c1C
5. N#Cc1nn(-c2ccc(Oc3cc(C4CCCC4)c(=O)[nH]n3)c(F)c2)c(=O)[nH]c1=O

1. 1.98
2. 3.15
3. 3.20
4. 2.89
5. 2.45

* * *

- study target: THRβ (Homo sapiens)
- Construct: GST
- run description: THRβ agonist activity, fluorescence ratio 665 nm/615 nm with EE-RxRα and biotin-GRIP
- test settings: incubated overnight at 4° C.
reported endpoint: pEC50
One number for each entry, as −log10 of the molar value.

{"smiles structure": "CC(C)(C)c1cc(Oc2c(Cl)cc(-n3nc(C#N)c(=O)[nH]c3=O)cc2Cl)n[nH]c1=O", "study target": "THRβ (Homo sapiens)", "pEC50": 7.00}

Hi there! I need pEC50 for each item below, if you can.
1. N#Cc1nn(-c2ccc(Oc3n[nH]c(=O)cc3C3CCCC3)c(Cl)c2)c(=O)[nH]c1=O
2. N#Cc1nn(-c2ccc(Oc3cc(CC4CCCC4)c(=O)[nH]n3)c(F)c2)c(=O)[nH]c1=O

1. 6.23
2. 7.89
